- target: récepteurs des benzodiazépines
- assay.name: Affinity for benzodiazepine receptors (displacement of 3H diazepam, rat cortex membranes)
- recorded.conditions: concentration inhibiting 50 % of specific 3H diazepam (10^-9M) binding, 30 min at 0°C, read-out: CI 50 (the source's name)
- Protocol: 1) Affinité pour les récepteurs des benzodiazépines. On homogénéise au vingtième (poids/volume) dans le sucrose 0,32M, les cortex prélevés sur des cerveaux de rats mâles pesant 150 g en moyenne. Après centrifugation de l'homogénat à 1000 g pendant 10 minutes à 0°C, le surnageant est centrifugé à 30 000 g pendant 20 minutes à +4"C. Le culot est mis en suspension dans 20 volumes de tampon Tris Hcl 50mM pH 7,4 et centrifugé à 30 000 g pendant 20 minutes à +4°c. […]
quantity: IC50 (nM)
Answer format: numeric, nM implied, no suffix.

Fill blank: measured IC50 of the compound O=c1c2n[nH]c3ccc(Cl)cc3c-2nn1-c1ccccc1 is ____. 1.4
